Please respond with reported EC50 (nM), agonist, cAMP AlphaScreen for every item in the list.
biological target: mouse melanocortin 1 receptor (mouse, UniProt Q01727 1-315); experiment: cell-based or functional assay
Sequence (Q01727 whole entry): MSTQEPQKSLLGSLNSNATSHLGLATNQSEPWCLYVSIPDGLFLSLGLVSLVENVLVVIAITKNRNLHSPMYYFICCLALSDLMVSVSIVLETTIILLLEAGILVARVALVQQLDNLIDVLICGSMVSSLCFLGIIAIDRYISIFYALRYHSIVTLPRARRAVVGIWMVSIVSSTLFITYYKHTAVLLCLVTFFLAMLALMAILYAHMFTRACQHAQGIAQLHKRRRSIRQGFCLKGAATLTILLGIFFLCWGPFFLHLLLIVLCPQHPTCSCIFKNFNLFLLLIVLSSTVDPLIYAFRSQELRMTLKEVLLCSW
Non-standard residues stand in square brackets, D forms with d. Dap = NC[C@H](N)C(=O)O
Numeric answer plus unit only.

Record excerpt, results attached:
In [3]: df
Out[3]:
                                     binder  value_measured
0  cyclo(PH[dF]RWNA[dP]) (also: TFA salt) [MDE6-3-2c, c[Pro-His-DPhe-Arg-Trp-Asn-Ala-DPro]]           12 nM
1  cyclo(PH[dF]RWNAF[dP]) (also: TFA salt) [MDE5-149-2c, c[Pro-His-DPhe-Arg-Trp-Asn-Ala-Phe-DPro]]         0.35 nM
2  cyclo(P[dF]RW[dP]) (also: TFA salt) [MDE5-147-1c, c[Pro-DPhe-Arg-Trp-DPro]]         1800 nM
3  cyclo(P[dF]RW[Dap]A[dP]) (also: TFA salt) [MDE6-5-1c, c[Pro-DPhe-Arg-Trp-Dap-Ala-DPro]]          600 nM
4  cyclo(PH[dF]RW[Dap]AF[dP]) (also: TFA salt) [MDE5-151-2c, c[Pro-His-DPhe-Arg-Trp-Dap-Ala-Phe-DPro]]           24 nM

Switching to the query record.
Q: Quick one: EC50 (nM), agonist, cAMP AlphaScreen of cyclo(PH[dF]RWN[dP]) (also: TFA salt) [MDE6-10-2c, c[Pro-His-DPhe-Arg-Trp-Asn-DPro]] ?
A: 50 nM

Source: patent US20180118789A1
